For each entry below, report its MIC Staphylococcus aureus-SMITH (GC 4543) value.
system: Staphylococcus sp.; experiment: in vitro antibacterial evaluation, MIC by broth dilution; type: cell-based; settings: strain GC 4543; broth dilution, 18 hours at 35° C.

Reference set (2 entries):
molecule: CC(C)C(=O)Nc1cc(CC2NC(=O)C(C(C)c3ccccc3)NC(=O)CNC(=O)C(CO)NC(=O)C(C(O)C3CNC(=N)N3C3OC(CO)C(O)C(O)C3O)NC(=O)C(C(O)C3CNC(=N)N3)NC2=O)ccc1O (stereo not drawn)
endpoint-value: >128 µg/mL

molecule: CC(c1ccccc1)C1NC(=O)CNC(=O)C(CO)NC(=O)C(C(O)C2CNC(=N)N2C2OC(CO)C(O)C(O)C2O)NC(=O)C(C(O)C2CNC(=N)N2)NC(=O)C(Cc2ccc3oc(=O)[nH]c3c2)NC1=O (stereo not drawn)
endpoint-value: >128 µg/mL

Switching to the query record.
Request: For the molecule CC(c1ccccc1)C1NC(=O)CNC(=O)C(CO)NC(=O)C(C(O)C2CNC(=N)N2C2OC(CO)C(O)C(O)C2O)NC(=O)C(C(O)C2CNC(=N)N2)NC(=O)C(Cc2ccc3oc(-c4ccc(C(=O)O)cc4)nc3c2)NC1=O (stereo not drawn) , give its reported MIC Staphylococcus aureus-SMITH (GC 4543).
Result: >128 µg/mL

---

test system: Staphylococcus sp.; assay: in vitro antibacterial evaluation, MIC by broth dilution; type: cell-based; details: broth dilution, 18 hours at 35° C.
measurement-kind: MIC Staphylococcus aureus-SMITH (GC 4543) (µg/mL)
Give bare numbers, in µg/mL.

// below: answered compounds
compound: CC(C)CC1OCC2OC(OC3C(CO)OC(Oc4ccc(CC5NC(=O)C(C(C)c6ccccc6)NC(=O)CNC(=O)C(CO)NC(=O)C(C(O)C6CNC(=N)N6C6OC(CO)C(O)C(O)C6O)NC(=O)C(C(O)C6CNC(=N)N6)NC5=O)cc4)C(O)C3O)C(O)C(O)C2O1 (stereo not shown)
measurement-target: Staphylococcus sp.
endpoint-value: 1

compound: CCCC(CCC)C(=O)OCC1OC(OC2C(CO)OC(Oc3ccc(CC4NC(=O)C(C(C)c5ccccc5)NC(=O)CNC(=O)C(CO)NC(=O)C(C(O)C5CNC(=N)N5C5OC(CO)C(O)C(O)C5O)NC(=O)C(C(O)C5CNC(=N)N5)NC4=O)cc3)C(O)C2O)C(O)C(O)C1O (stereo not shown) [Example 99c]
measurement-target: Staphylococcus sp.
endpoint-value: 1

Provide MIC Staphylococcus aureus-SMITH (GC 4543) for all items below, preserving their order.
1. CC(c1ccccc1)C1NC(=O)CNC(=O)C(CO)NC(=O)C(C(O)C2CNC(=N)N2C2OC(CO)C(O)C(O)C2O)NC(=O)C(C(O)C2CNC(=N)N2)NC(=O)C(Cc2ccc(OC3OC(COC(=O)C(c4ccccc4)c4ccccc4)C(OC4OC(CO)C(O)C(O)C4O)C(O)C3O)cc2)NC1=O (stereo not shown) [Example 96b]
2. COc1ccc(COCC2OC(OC3C(CO)OC(Oc4ccc(CC5NC(=O)C(C(C)c6ccccc6)NC(=O)CNC(=O)C(CO)NC(=O)C(C(O)C6CNC(=N)N6C6OC(CO)C(O)C(O)C6O)NC(=O)C(C(O)C6CNC(=N)N6)NC5=O)cc4)C(O)C3O)C(O)C(O)C2O)c2ccccc12 (stereo not shown)
3. CC(c1ccccc1)C1NC(=O)CNC(=O)C(CO)NC(=O)C(C(O)C2CNC(=N)N2C2OC(CO)C(O)C(O)C2O)NC(=O)C(C(O)C2CNC(=N)N2)NC(=O)C(Cc2ccc(OC3OC(CO)C(OC4OC(COCc5cccs5)C(O)C(O)C4O)C(O)C3O)cc2)NC1=O (stereo not shown)
4. CC(c1ccccc1)C1NC(=O)CNC(=O)C(CO)NC(=O)C(C(O)C2CNC(=N)N2C2OC(CO)C(O)C(O)C2O)NC(=O)C(C(O)C2CNC(=N)N2)NC(=O)C(Cc2ccc(OC3OC(CO)C(OC4OC(COCC=Cc5ccccc5)C(O)C(O)C4O)C(O)C3O)cc2)NC1=O (stereo not shown)
5. Cc1ccc(COCC2OC(OC3C(CO)OC(Oc4ccc(CC5NC(=O)C(C(C)c6ccccc6)NC(=O)CNC(=O)C(CO)NC(=O)C(C(O)C6CNC(=N)N6C6OC(CO)C(O)C(O)C6O)NC(=O)C(C(O)C6CNC(=N)N6)NC5=O)cc4)C(O)C3O)C(O)C(O)C2O)cc1 (stereo not shown)

Result:
1. 2
2. 2
3. 4
4. 8
5. 2

Where do these numbers come from? They come from patent US6914045B2.
